Assay: Viability qHTS for spleen associated tyrosine kinase inhibitor (SYKi) naive MV4-11 cells (AID 1963823); further: nearly all actives have a fitted effect of over 40% in size
Settings: MV4-11 AML viability, CellTiter-Glo luminescence, 72 h; series mostly up to 45 µM
Records with an inconclusive call do not appear. Active and inactive are the calls of the source. The call rests on the fitted dose curve; in most records, active means well fitted cell-killing curve with a large enough effect; inconclusive means small, poorly fitted or top-dose-only effect, or effect the other way; inactive means no such curve, though single readings can be large or run the other way.
Your answer must be one of the following: Y = active, N = inactive

COMPOUND	GROUP LABEL
C[C@H]1[C@H](C)CC[C@]2(C(=O)O)CC[C@]3(C(=O)O)C(=CCC4[C@@]5(C)CC[C@H](O[C@@H]6O[C@H](C)[C@@H](O)[C@H](O)[C@H]6O)C(C)(C)C5CC[C@]43C)[C@H]12 (stereo partly specified)	N
CN1C(=O)[C@@H](NC(=O)c2n[nH]c(Cc3ccccc3)n2)COc2ccccc21	N
Cc1c(C(=O)NCCCO)cnn1-c1nc(-c2cccc(C(F)(F)F)c2)cs1	Y
CNC(=O)c1cc(Oc2ccc(NC(=O)Nc3ccc(Cl)c(C(F)(F)F)c3)cc2)ccn1	Y
Cc1cc(C)nc(SCC(=O)Nc2ncc(Cc3cccc4ccccc34)s2)n1	Y

Tell me the recorded outcome of this test for CCCCN(CCCC)C(=O)CN1C[C@H](c2ccc3c(c2)OCO3)[C@@H](C(=O)O)[C@@H]1c1ccc(OC)cc1 .
Y

Called result for C=C(NC(=O)C(=C)NC(=O)c1csc(C2=NC3c4csc(n4)C4NC(=O)c5csc(n5)C(C(C)(O)C(C)O)NC(=O)C5CSC(=N5)/C(=C/C)NC(=O)C(C(C)O)NC(=O)c5csc(n5)C3(CC2)NC(=O)C(C)NC(=O)C(=C)NC(=O)C(C)NC(=O)C(C(C)CC)NC2C=Cc3c(C(C)O)cc(nc3C2O)C(=O)OC4C)n1)C(N)=O (stereo unspecified)
Y

Answer briefly: the call reported for CO[C@H]1O[C@@H]2O[C@]3(C)CC[C@H]4[C@H](C)CC[C@@H]([C@H]1C)[C@@]24OO3 in this assay.
Y

Outcome logged for CC(C)(O[C@@H]1O[C@H](CO)[C@@H](O)[C@H](O)[C@H]1O)C(OC(=O)/C=C\c1ccc(O)cc1)C(=O)OCc1ccc(O[C@@H]2O[C@H](CO)[C@@H](O)[C@H](O)[C@H]2O)cc1 (stereo partly specified) in this assay:
N
